Tested on: HeLa cells
Assay: 2-AG accumulation assay using HeLa cells
Type: cell-based
Details: Homo sapiens; HeLa cell homogenate, 2-AG accumulation relative to MAFP; compound @10 μM as printed (first of two columns with the same head); read-out: Ex. 5 % MAFP @10 μM (first column)
Emax at 10 µM by entry:
Express the result in % but write the number alone.

COMPOUND: CN(CC1CCCCC1)c1ccc(CCC(=O)N2CC(N3CCN(c4ccccn4)CC3)C2)cc1 [compound 40]
Emax at 10 µM [%]: 77.3

Prompt: Please look up its Emax at 10 µM: CCN(CC)c1ccc(C(=O)N2CC(N3CCN(c4ccccn4)CC3)C2)cc1 [compound 37]
Completion: 32

Prompt: Bench note: what Emax at 10 µM did O=C(c1ccc2nc(C3CCCCC3)oc2c1)N1CC(N2CCN(c3ncccn3)CC2)C1 [compound 10] show?
Completion: 97.8
